assay-system: STK11 (human) (UniProt Q15831)
Sequence (Q15831 whole entry, looked up): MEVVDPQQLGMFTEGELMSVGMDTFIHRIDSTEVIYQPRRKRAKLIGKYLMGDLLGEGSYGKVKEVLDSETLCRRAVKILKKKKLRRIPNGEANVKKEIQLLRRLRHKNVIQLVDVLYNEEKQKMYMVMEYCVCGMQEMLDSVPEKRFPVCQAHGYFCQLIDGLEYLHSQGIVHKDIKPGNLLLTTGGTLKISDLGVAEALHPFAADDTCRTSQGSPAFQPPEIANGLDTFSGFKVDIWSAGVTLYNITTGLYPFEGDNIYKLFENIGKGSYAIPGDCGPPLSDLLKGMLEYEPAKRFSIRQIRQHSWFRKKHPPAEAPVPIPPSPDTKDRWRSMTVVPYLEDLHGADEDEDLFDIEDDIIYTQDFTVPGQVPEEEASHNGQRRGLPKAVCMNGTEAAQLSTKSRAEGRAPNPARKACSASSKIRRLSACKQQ
test-details: KINOMEscan competition binding
particulars: compound 10.0 µM
property: kinase still bound, per cent of control (%)
Dear colleague, please return just the value in %, with no unit written.

Examples from the recorded data:
OCCCNc1cc(-c2ccnc(Nc3cccc(Cl)c3)n2)ccn1 : 100
Cc1cc([C@@H](C)Nc2ccccc2C(=O)O)c2nc(N3CCOCC3)cc(=O)n2c1 : 98
CCN1CCN(Cc2ccc(Nc3ncc4c(n3)N(C)c3ccccc3C(=O)N4C)cc2C(F)(F)F)CC1 : 89

Prompt: What value of kinase still bound, per cent of control has been reported for the following molecule? O=C(O)c1ccc(Nc2ncc3c(n2)-c2ccc(Cl)cc2C(c2c(F)cccc2F)=NC3)cc1
Response: 92

Prompt: Another molecule to check: C=CC(=O)Nc1cc(NC(=O)c2ccc(C)c(NC(=O)c3ccno3)c2)cc(C(F)(F)F)c1
Response: 100

* * *

assay-system: RIPK4 (human)
test-details: KINOMEscan competition binding
particulars: compound 10.0 µM
property: kinase still bound, per cent of control (%)
# value in %; strip the unit string

Observe how each entry below is paired with its result.
O=C(NOC[C@H](O)CO)c1ccc(F)c(F)c1Nc1ccc(I)cc1F : 100
CC[C@@H]1C(=O)N(C)c2cnc(Nc3ccc(C(=O)NC4CCN(C)CC4)cc3OC)nc2N1C1CCCC1 : 100
C=CC(=O)Nc1cccc(Oc2nc(Nc3ccc(N4CCN(C)CC4)cc3OC)ncc2Cl)c1 : 100
O=C1Nc2ccc(I)cc2/C1=C/c1cc(Br)c(O)c(Br)c1 : 76

Here is the next item to consider.
Prompt: Field: kinase still bound, per cent of control (RIPK4 (human)). Entry: Cc1ccc(NC(=O)c2cccc(C(C)(C)C#N)c2)cc1Nc1ccc2ncn(C)c(=O)c2c1
Response: 98

* * *

assay-system: UniProtKB Q92918
Sequence (Q92918 whole entry, looked up): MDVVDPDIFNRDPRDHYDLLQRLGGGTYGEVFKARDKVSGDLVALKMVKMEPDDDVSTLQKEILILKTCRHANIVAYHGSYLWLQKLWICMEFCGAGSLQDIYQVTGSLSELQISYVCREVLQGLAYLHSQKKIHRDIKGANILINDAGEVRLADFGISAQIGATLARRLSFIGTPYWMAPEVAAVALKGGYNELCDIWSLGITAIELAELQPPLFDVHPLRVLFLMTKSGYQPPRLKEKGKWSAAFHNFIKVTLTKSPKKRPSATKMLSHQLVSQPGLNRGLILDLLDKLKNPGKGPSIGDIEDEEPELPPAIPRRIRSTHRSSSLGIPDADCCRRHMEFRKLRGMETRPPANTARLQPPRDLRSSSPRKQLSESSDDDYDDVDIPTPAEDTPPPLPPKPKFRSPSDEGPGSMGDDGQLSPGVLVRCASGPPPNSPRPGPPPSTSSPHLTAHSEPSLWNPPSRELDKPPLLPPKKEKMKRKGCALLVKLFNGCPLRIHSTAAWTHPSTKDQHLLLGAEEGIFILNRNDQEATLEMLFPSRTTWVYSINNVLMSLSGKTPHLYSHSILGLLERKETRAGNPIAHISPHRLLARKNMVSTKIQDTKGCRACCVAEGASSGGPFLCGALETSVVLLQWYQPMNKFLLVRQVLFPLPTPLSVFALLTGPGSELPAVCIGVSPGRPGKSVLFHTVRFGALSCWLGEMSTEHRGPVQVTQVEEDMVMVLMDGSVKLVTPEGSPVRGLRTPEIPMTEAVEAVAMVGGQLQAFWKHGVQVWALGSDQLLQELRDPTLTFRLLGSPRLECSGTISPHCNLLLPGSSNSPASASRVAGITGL
test-details: KINOMEscan competition binding
particulars: compound 10.0 µM
Below, each entry is listed alongside its reported kinase still bound, per cent of control.
Answer with a number only, understood to be in %.

Cc1cc([C@@H](C)Nc2ccccc2C(=O)O)c2nc(N3CCOCC3)cc(=O)n2c1 : 100
CN(C)C/C=C/C(=O)Nc1cccc(Nc2ncc3c(n2)N(C)c2ccccc2C(=O)N3C)c1 : 38
CCN1CCN(Cc2ccc(Nc3ncc4c(n3)N(C)c3ccccc3C(=O)N4C)cc2C(F)(F)F)CC1 : 18
CCCS(=O)(=O)Nc1ccc(F)c(C(=O)c2c[nH]c3ncc(-c4ccc(Cl)cc4)cc23)c1F : 20
Nc1ccc(-c2ccc3ncc4ccc(=O)n(-c5cccc(C(F)(F)F)c5)c4c3c2)cn1 : 100

Prompt: What value of measured kinase still bound, per cent of control is listed for Cc1ccc(C(=O)Nc2cccc(C(F)(F)F)c2)cc1Nc1cncc(C(N)=O)c1 ?
Response: 100

Prompt: Same question for COc1cc(C(=O)NC2CCN(C)CC2)ccc1Nc1ncc2c(n1)N(C1CCCC1)C(C)CC(=O)N2C (configuration not stated) please.
Response: 100

* * *

assay-system: STK25 (human) (UniProt O00506)
Sequence (O00506 whole entry, looked up): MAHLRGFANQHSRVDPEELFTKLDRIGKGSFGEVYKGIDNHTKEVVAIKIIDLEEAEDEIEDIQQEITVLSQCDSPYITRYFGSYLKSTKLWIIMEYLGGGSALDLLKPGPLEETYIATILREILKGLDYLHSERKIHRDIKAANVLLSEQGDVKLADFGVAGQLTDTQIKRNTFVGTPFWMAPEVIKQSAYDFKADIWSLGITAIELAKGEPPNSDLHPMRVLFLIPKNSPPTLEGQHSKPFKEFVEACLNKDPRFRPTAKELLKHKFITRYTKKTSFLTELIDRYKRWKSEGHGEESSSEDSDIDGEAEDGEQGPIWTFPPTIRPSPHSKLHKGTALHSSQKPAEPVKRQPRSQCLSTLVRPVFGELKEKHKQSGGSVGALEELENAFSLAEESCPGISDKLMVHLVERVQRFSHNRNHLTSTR
test-details: KINOMEscan competition binding
particulars: compound 10.0 µM
property: kinase still bound, per cent of control (%)
Respond numerically; units are % and should not be typed.

Prompt: # query: kinase still bound, per cent of control | item O=C(O)c1ccc(Nc2ncc3c(n2)-c2ccc(Cl)cc2C(c2c(F)cccc2F)=NC3)cc1 | system: STK25 (human) (UniProt O00506)
Response: 56

Prompt: Also O=C1Nc2ccc(I)cc2/C1=C/c1cc(Br)c(O)c(Br)c1 , if possible.
Response: 100

Prompt: Continue with CN(C)C/C=C/C(=O)Nc1cccc(Nc2ncc3c(n2)N(C)c2ccccc2C(=O)N3C)c1
Response: 66
